Sourced from PubChem BioAssay (NCI)

System: MDA-MB-468 breast
Experiment: NCI tumour cell line growth inhibition, 48 h
Quick reference for GI50 among some molecules

molecule	endpoint-value
CO[C@H]1C[C@@H]2CC[C@@H](C)[C@@](O)(O2)C(=O)C(=O)N2CCCC[C@H]2C(=O)O[C@H]([C@H](C)C[C@@H]2CC[C@@H](OCCO)[C@H](OC)C2)CC(=O)[C@H](C)C=C(C)[C@@H](O)[C@@H](OC)C(=O)[C@H](C)C[C@H](C)/C=C/C=C/C=C1C	< 11.7 nM

GI50 reading for O=C1Cc2cc(C(=O)NC3C[C@H]4CC[C@@H](C3)N4S(=O)(=O)CC3CCN(CCCC(F)(F)F)CC3)c(Cl)cc2N1 (stereo partly drawn) : 27000 nM

###

Test system: MDA-MB-468 breast
Assay: NCI tumour cell line growth inhibition, 48 h; in the data active means GI50 below about 0.43 µM; inactive means the rest
Entry note: the call must match one of true (1) = active, false (0) = inactive

                                   molecule  assigned_class
0  Cn1c(-c2c(N)n(CCCN3CCOCC3)c3nc(C#N)c(C#N)nc23)nc2ccccc21       false (0)
1  O=c1oc2ccc(-c3ccc(F)cc3F)cc2c(=O)n1-c1ccc(F)c(F)c1       false (0)
2  COC(=O)[C@H]1CCCN1C(=O)[C@H]1CCCN1C(=O)[C@H](Cc1c[nH]c2ccccc12)NC(=S)Nc1cc(C(F)(F)F)cc(C(F)(F)F)c1       false (0)
3  N#CC1c2ccccc2C=CN1C(=O)N(c1ccccc1)c1ccccc1 (stereo not given)       false (0)
4  CN1CCN(c2nc(-c3cnc4ccccc4n3)cc3ccccc23)CC1       false (0)

**Query** Returns: the outcome recorded for CN(Cc1cnc2nc(N)nc(N)c2n1)c1ccc(C(=O)NC(CCC(=O)O)C(=O)O)cc1Br (stereo not given) in this assay.
**Result** true (1)

###

Measured TGI of individual entries
System: MDA-MB-468 breast
Experiment: NCI tumour cell line growth inhibition, 48 h

Example cases with answers are listed next.
                      smiles_representation  endpoint_value
0  CCOC(=O)c1cnc2c(C)cccc2c1Nc1ccc(C(C)=O)cc1        > 100 µM
1  COc1cc(-c2nn(-c3cccc(NC(=O)c4ccc(Cl)c(C(F)(F)F)c4)c3)cc2-c2ccncc2)ccc1Cl       > 32.5 µM

I looked up `CC[C@H](C)[C@H](NC(=O)CN(C)C)C(=O)N(C)[C@H](C[C@@H](OC(C)=O)c1nc(C(=O)NC23CC(C(=O)OC)(C2)C3)cs1)C(C)C` and its TGI for MDA-MB-468 breast was > 25 µM

###

Test system: MDA-MB-468 breast
Test: NCI tumour cell line growth inhibition, 48 h; in the data active means GI50 below about 0.43 µM; inactive means the rest
The categories you may choose from are label 1 (active), label 0 (inactive)

                      smiles_representation   target_or_system  assigned_class
0  COC(=O)c1ccc(NC(=O)Oc2ccc(N(CCCl)CCCl)cc2)cc1  MDA-MB-468 breast         label 0
1  CC(=O)c1c(C)[nH]c(-c2nc3ccc(N4CCN(C)CC4)cc3[nH]2)c1-c1ccccc1  MDA-MB-468 breast         label 1
2  COc1ccc(N=N/C(C(=O)C(F)(F)F)=C(\O)c2ccc(Cl)cc2)cc1  MDA-MB-468 breast         label 0

**Query** Dear all, I need the recorded test outcome for `CN1CCN(CCCOc2cccc3nc(Nc4ccc(Cl)c(C(F)(F)F)c4)ccc23)CC1` , thank you.
**Result** label 0

**Query** How did this test come out for `COc1ccc(N(C)c2nc(N)nc3sc4c(c23)CCCC4)cc1` ?
**Result** label 1

**Query** Recorded call for `CCOC(=O)c1cnc2c(C)cccc2c1Nc1ccc(C(C)=O)cc1` ?
**Result** label 0
